# Target or system: hGLP-1R (Homo sapiens, UniProt P43220)
# Method summary: cell-based or functional assay
Measured attribute: cAMP Emax (%)

binder="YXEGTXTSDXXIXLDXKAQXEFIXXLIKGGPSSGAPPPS (Y-Aib-EGT-αMeF(2F)-TSD-4Pal-Aib-I-αMeL-LD-Orn-K((2-[2-(2-Amino-ethoxy)-ethoxy]-acetyl)2-(γ-Glu)-CO-(CH2)10-CH3)AQ-Aib-EFI-(D-Glu)-αMeY-LIK((2-[2-(2-Amino-ethoxy)-ethoxy]-acetyl)2-(γ-Glu)-CO-(CH2)10-CH3)GGPSSGAPPPS-NH2) [Example 334]" measured_attribute="cAMP Emax" unit_string=% measured=104
binder="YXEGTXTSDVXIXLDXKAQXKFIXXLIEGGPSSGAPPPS (Y-Aib-EGT-αMeF(2F)-TSDV-Aib-I-αMeL-LD-Orn-K((2-[2-(2-Amino-ethoxy)-ethoxy]-acetyl)2-(γ-Glu)-(10-(4-carboxyphenoxy)decanoyl))AQ-Aib-K((2-[2-(2-Amino-ethoxy)-ethoxy]-acetyl)2-(γ-Glu)-(10-(4-carboxyphenoxy)decanoyl))FI-(D-Glu)-αMeY-LIEGGPSSGAPPPS-NH2) [Example 319]" measured_attribute="cAMP Emax" unit_string=% measured=100
binder="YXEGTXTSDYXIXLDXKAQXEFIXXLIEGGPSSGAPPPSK (Y-Aib-EGT-αMeF(2F)-TSDY-Aib-I-αMeL-LD-Orn-K((2-[2-(2-Amino-ethoxy)-ethoxy]-acetyl)2-(γ-Glu)-CO-(CH2)10-CH3)AQ-Aib-EFI-(D-Glu)-αMeY-LIEGGPSSGAPPPSK((2-[2-(2-Amino-ethoxy)-ethoxy]-acetyl)2-(γ-Glu)-CO-(CH2)10-CH3)-NH2) [Example 302]" measured_attribute="cAMP Emax" unit_string=% measured=103
